System: Wolbachia pipientis
method: Anti-Wolbachia Cell-Based Screen
Assay type: functional
Parameters: scale not given: in the data most compounds retested in dose-response had high values
stated.conditions: 5 µM
In all, about 48,000 compounds went through this assay and about 13,000 (27%) showed an effect of 50% or more. The list shows a part of the results.
Known Percent Effect of a selection of molecules
recorded.endpoint: Percent Effect

O=C(O)C(F)(F)F.O=C(O)C(F)(F)F.c1cncc(CN2CCOC(c3ncn4c(C5CC5)cccc34)C2)c1 (centres undefined) :: -19.22%
CCCC(=O)NC(Cc1ccc(C)cc1)c1ccccn1 (centres undefined) :: -7.589%
Cc1cccc2c1cnn2CCCNC(=O)CCCC(=O)O :: -9.765%
O=C(O)C(F)(F)F.O=C(O)C(F)(F)F.O=C(O)C(F)(F)F.c1ccc(CN2Cc3[nH]nc(COc4cccnc4)c3C2)nc1 :: 6.723%
NC[C@H]1CC[C@H](C(NC(=O)CC2CCCCC2)c2ccccn2)CC1 (some centres undefined) :: 140.5%
CNc1cc(C)nc(C2CCN(CCO)CC2)n1 :: 109.8%
CC(C)[C@H]1CN(Cc2ccccn2)C[C@@H]1NC(=O)CC1CCC1 :: -7.125%
Cc1cc(Oc2ccccc2)nc(C2CCN(CCO)CC2)n1 :: 153.9%
CCS(=O)(=O)N1Cc2[nH]nc(COCc3cccnc3)c2C1.O=C(O)C(F)(F)F :: 98.27%

---

System: Wolbachia pipientis
method: Anti-Wolbachia Cell-Based Screen
Type: functional
Design: scale not given: in the data most compounds retested in dose-response had high values
stated.conditions: 5 µM
Hit rate of the full screen: of about 48,000 compounds, about 13,000 (27%) showed an effect of 50% or more. The list shows a part of the results.
recorded.endpoint: Percent Effect (%)

Nc1cc2c(nn1)CCN(C(=O)Cc1ccc3c(c1)CCCC3)C2 :: -1.547
Cc1ccc(NC2CCN(C(=O)COC3CCCCC3)CC2)nn1 :: 112.2
COc1cccc2[nH]cc(CCNC(=O)N3CCC[C@H]3CO)c12 :: 0.855
CN1N=C(C(=O)N2CCCC(CCc3c(F)cccc3F)C2)CCC1=O (centres undefined) :: 7.677
Cc1nc(CN2CCCC(CCc3ccc(F)c(F)c3)C2)c[nH]1 (centres undefined) :: -4.452
Cc1ccc(CN(Cc2ccccn2)C(=O)CCC2CCCN(C)C2)s1 (centres undefined) :: -9.083
Cc1nc(N)sc1C(=O)N1CCCC(COc2ccc(F)cc2)C1 (centres undefined) :: -20.41
Cc1nc(N)ncc1C(=O)N1CCCC(CCc2ccccc2F)C1 (centres undefined) :: 102.1
Cc1ccc(CN[C@@H]2CO[C@H](CNS(=O)(=O)c3ccccc3)[C@H]2O)cc1 :: -4.281
Cc1ccc(NCc2cncc3c2CCN(C(=O)C2CC=CC2)C3)nn1.Cl :: 36.84
O=C(c1cnc(O)cc1O)N1CCCC(CCc2ccccc2F)C1 (centres undefined) :: 119.6
Cc1cc(NC(=O)NCC(CC(C)C)N2CCOCC2)n(C)n1 (centres undefined) :: 103.9
COc1coc(CN2CCCC(CCc3ccccc3F)C2)cc1=O (centres undefined) :: 19.37
Cc1nn(C)c(C)c1C1CCCN1C(=O)CCCc1ccccn1 (centres undefined) :: 91.34
Cc1ccc(NC2CCN(C(=O)COCC3CC3)CC2)nn1 :: 115.7
OCCn1cc(CN2CCN(CCOCC(F)(F)F)CC2)cn1 :: 2.281
Cc1cc(CNC(=O)NC(C)c2ccncc2)no1 (centres undefined) :: -0.1893
CN1N=C(C(=O)N2CCCC(CCc3cccc(F)c3)C2)CCC1=O (centres undefined) :: -39.97
Cc1ccc(NC2CCN(C(=O)CC3CCCO3)CC2)nn1 (centres undefined) :: 6.763
Cc1nn(C)c(C)c1C1CCCN1Cc1nc(-c2ccco2)oc1C (centres undefined) :: -2.901
Cc1nc(CN(C)C(=O)C2CCC(=O)N(CCN(C)C)C2)cs1 (centres undefined) :: 7.495
Cc1ccc(F)cc1NC(=O)NCC(C)N1CCOCC1 (centres undefined) :: 9.148
CCc1sc(-c2nnc(CNCCn3cccn3)o2)cc1C :: -1.143
Cc1n[nH]c(C)c1-c1nccnc1CC1CCCN(C)C1 (centres undefined) :: 113
Cc1n[nH]c(C)c1CN1CCC(c2cc(C(C)C)n[nH]2)CC1 :: 7.572
Cc1nc(N)ncc1C(=O)N1CCCC(CCc2ccc(F)cc2)C1 (centres undefined) :: 102.6
O=S(=O)(NCCNc1ccc(-n2cccc2)nn1)c1ccccc1 :: -5.245
CCn1cnnc1CNC(=O)NCC(C(C)C)N1CCOCC1 (centres undefined) :: -2.117
O=C(c1cc(-c2cccs2)nc2ccccc12)N1CCN(CCO)CC1 :: 26.12
Cc1ccc(NC2CCN(C(=O)COCC(F)(F)F)CC2)nn1 :: -5.027
CS(=O)(=O)N1Cc2nccn2CC(CN2CCCC2=O)C1 (centres undefined) :: -14.04
O=C(CN(Cc1ccccc1)CC1CCOCC1)NC(=O)NC1CC1 :: 17.45
O=C(CCCc1cn[nH]c1)N1C[C@@H](CN2CCCC2)C[C@H](CO)C1 :: -0.9744
COc1ccc(C2CCCN2C(=O)CCNc2ncccn2)cc1 (centres undefined) :: 1.66
O=C(O)C(F)(F)F.O=C([C@H]1CN(Cc2ccc(F)cc2)C[C@H]2OCC[C@@H]12)N1CCCO1 :: 1.984
CCCn1nc2c(cc1=O)CN(CC(=O)N(C)c1nccs1)CC2 :: -22.84
Cc1n[nH]c(C)c1-c1nccnc1CC1CCN(C(C)C)CC1 :: 127
Cc1cc(NC(=O)NCC(C)N2CCOCC2)n(C)n1 (centres undefined) :: 113
CS(=O)(=O)N1CCC(CSc2ccccc2)C1 (centres undefined) :: 7.413

---

Tested on: Wolbachia pipientis
method: Anti-Wolbachia Cell-Based Screen
Format: functional
Parameters: scale not given: in the data most compounds retested in dose-response had high values
stated.conditions: 5 µM
Out of some 48,000 compounds screened, about 13,000 (27%) showed an effect of 50% or more. The list shows a part of the results.
Known Percent Effect of a selection of molecules
recorded.endpoint: Percent Effect

N#Cc1cc(F)c(NCc2ccc(F)cc2)c(F)c1 :: 53.8%
CCCS(=O)(=O)N1CCC2(CN(c3ccsc3)C(=O)CN2C)C1.O=C(O)C(F)(F)F (stereo unspecified) :: 2.599%
N#Cc1cc(F)c(NCCc2ccc(F)cc2)c(F)c1 :: -6.207%
CCc1ccccc1OCCN(C)C(=O)CCN1CCCCO1 :: -13.9%
CN(C)C(=O)c1ccc2c(c1)N(C)C(CC(=O)NCc1ccno1)CO2 (stereo unspecified) :: -14.39%
O=C(c1ccc(F)cc1F)N1CC[C@H](O)[C@@H](N2CCOCC2)CC1 :: 0.4748%
Cc1nsc(NC(=O)NC2CCN(C)CC2)n1 :: -30.6%
C[C@@H]1CN(C(=O)CCN2CCOCC2)CC[C@]1(C)O :: -11.44%
CC(=O)Nc1cccc([C@H]2C[C@@H](NC(C)=O)CCO2)c1 :: 88.4%
Cc1ncccc1NC(=O)[C@@H]1C[C@@H]2CCN(Cc3cccs3)C[C@H]2O1.O=C(O)C(F)(F)F.O=C(O)C(F)(F)F :: -1.319%
O=S(=O)(CC1CCCCC1)NCc1ccnc(O)c1 :: -10.25%
Cc1c[nH]c(C(=O)N2CCn3nc(C(=O)NC4CC4)cc3C2)n1 :: -2.025%
CC(C)c1ncc2c(n1)CN(Cc1cccc(OCC(N)=O)c1)CC2 :: -10.24%
CC(C)N(C)C(=O)c1ccc(Cl)c(NC(=O)CCN2C(=O)CCC2=O)c1 :: -4.274%
O=C(N1CCOCC1)N1C[C@H]2CC[C@@H]1CN(C1Cc3ccccc3C1)C2 :: 12.43%
CN1CCC(Cc2noc(-c3cccc(OCC(N)=O)c3)n2)CC1 :: 14.54%
O=C(c1ccccc1Cl)N1CC[C@H](O)[C@@H](N2CCOCC2)CC1 :: 95.8%
Cc1ccc(C)n1-c1ccc(C(=O)NCCNc2ncccn2)cc1 :: 4.736%
N#Cc1ccc(OC2CCN(C(=O)c3ccccc3Cl)CC2)nc1 :: -3.988%
CNC(=O)Cn1nc(C(C)C)c2cnn(C(C)(C)C)c2c1=O :: -6.377%
CCC(CC)c1cc(CNC(=O)N2CCCC(N(C)C)C2)on1 (stereo unspecified) :: -19.35%
CSCCC(=O)N1CCN(CC(C)(C)O)CC1 :: -39.31%
N#Cc1cc(S(N)(=O)=O)ccc1NC1CCc2c(F)cccc21 (stereo unspecified) :: -10.31%
COc1ccc(CNc2nncs2)cc1F :: -12.2%
Cn1c(CN2CCOCC2)nnc1C1CCN(C(=O)C2CCCC2)CC1 :: -7.454%
O=C(N1CCOCC1)N1CC[C@@](O)(c2ccccc2)[C@H]2CCCC[C@@H]21 :: 4.203%
COC[C@@]12CCO[C@@H]1CCN(C(=O)C1CCOCC1)C2 :: 4.117%
COCCn1cnnc1C(C)NC(=O)c1[nH]c2c(C)cc(C)cc2c1C (stereo unspecified) :: -15.82%
O=C(C1CCOCC1)N1C[C@@H]2OCCN(CCN3CCCC3)[C@@H]2C1 :: -5.298%
COCC1N(C(=O)N2CCOCC2)[C@H]2CC[C@]1(O)CC2 (stereo partly specified) :: 110.4%
COC(=O)N1CCc2ccccc2C1C(=O)NCc1cccs1 (stereo unspecified) :: 1.281%
CC(=O)NC1CCN(C(=O)Nc2cccc(C(F)(F)F)c2)CC1 :: -0.6218%
CCN1CC[C@@H]2OC[C@H](C(=O)NCc3cccs3)C[C@@H]2C1 :: 91.2%
Cc1cnc(N2C[C@@H]3[C@@H](C2)OCC(=O)N3CC2CC2)nc1 :: 5.534%
Cc1cc(C)c(C(=O)NC2CCN(c3ncccc3C#N)CC2)c(=O)[nH]1 :: 4.704%
COc1cccc2ccc(CN3CCN(c4ncccn4)CC3)nc12 :: -3.273%
